Where do these numbers come from? They come from patent EP4043466B1.

Provide the reported pIC50 of each item.
- System: Karpas 422 cells
- MEASUREMENT DESCRIPTION: Karpas 422 cell viability, CTG (Cell Titre Glo) assay
- Assay type: cell-based, human
- ASSAY CONTEXT: Homo sapiens; Inhibition of proliferation of Karpas 422 cells (EZH2 Y641N); viability measured Day 4, Day 7 or Day 11, time point of the tabulated values not stated
pIC50: −log10 of the molar value.

Examples from the recorded data:
N#Cc1cn2c(NCc3c(F)ccc4c3CCO4)ncc(-c3ccc(C(=O)O)cc3)c2n1 [Example 183]    < 6.30
N#Cc1cn2c(NCc3c(F)ccc4c3CCO4)ncc(-c3ccc(C(=O)O)nc3)c2n1 [Example 215]    < 6.30
CN1CCc2cc(-c3cnc(NCc4c(F)ccc5c4CCO5)n4cc(C#N)nc34)ccc2C1=O [Example 168]    ≥ 6.60
Cc1cc(-c2cnc(NCc3c(F)ccc4c3CCO4)n3cc(C#N)nc23)n(C)n1 [Example 86]    ≥ 6.60
CN1CCOCC1c1ccc(-c2cnc(NCc3c(F)ccc4c3CCO4)n3cc(C#N)nc23)cc1 (centres unmarked) [Example 227]    ≥ 6.60

Give pIC50 for each listed item.
1. Cc1nn(C(C)C)cc1-c1cnc(NCc2c(F)ccc3c2CCO3)n2cc(C(=O)O)nc12 [Example 5]
2. COc1cc(-c2cnc(NCc3c(F)ccc4c3CCO4)n3cc(C#N)nc23)ccn1 [Example 113]
3. N#Cc1cn2c(NCc3c(F)ccc4c3CCO4)ncc(-c3ccc(C4CCCN4)cc3)c2n1 (centres unmarked) [Example 204]

Found:
["< 6.30", "< 6.30", "≥ 6.60"]

###

- System: Karpas 422 cells
- MEASUREMENT DESCRIPTION: Karpas 422 cell viability, CTG (Cell Titre Glo) assay
- Format: cell-based, human
- ASSAY CONTEXT: Homo sapiens; Inhibition of proliferation of Karpas 422 cells (EZH2 Y641N); viability measured Day 4, Day 7 or Day 11, time point of the tabulated values not stated
REPORTED METRIC: IC50

Record IC50 for all entries; do not skip any.
1. N#Cc1cn2c(NCc3c(F)ccc4c3CCO4)ncc(-c3cnn(C4CCCCO4)c3)c2n1 (stereo not drawn) [Example 118]
2. N#Cc1cn2c(NCc3c(F)ccc4c3CCO4)ncc(-c3ccc(C4CC4)nc3)c2n1 [Example 116]

Found:
["> 500 nM", "≤ 250 nM"]

Give IC50 for each listed item.
1. Cc1cc(C(=O)N(C)C)c(F)cc1-c1cnc(NCc2c(F)ccc3c2CCO3)n2cc(C#N)nc12 [Example 43]
2. CN1CCc2cc(-c3cnc(NCc4c(F)ccc5c4CCO5)n4cc(C#N)nc34)ccc2C1 [Example 159]
3. N#Cc1cn2c(NCc3c(F)ccc4c3CCO4)ncc(-c3ccc(CN4CCC(F)C4)cc3)c2n1 (stereo not drawn) [Example 54]

Found:
1. ≤ 250 nM
2. ≤ 250 nM
3. ≤ 250 nM

Hi team, please reply with IC50 for each item in this list.
1. Cc1ncc(-c2cnc(NCc3c(F)ccc4c3CCO4)n3cc(C#N)nc23)c(C)n1 [Example 71]
2. Cc1ncccc1-c1cnc(NCc2c(F)ccc3c2CCO3)n2cc(C(N)=O)nc12 [Example 137]
3. N#Cc1cn2c(NCc3c(F)ccc4c3CCO4)ncc(-c3cnn(C4COC4)c3)c2n1 [Example 106]
4. Cc1cc(-c2cnc(NCc3c(Cl)ccc4c3CCO4)n3cc(C#N)nc23)n(C)n1 [Example 29]
5. N#Cc1cn2c(NCc3c(F)ccc4c3CCO4)ncc(-c3ccc(S(N)(=O)=O)cc3)c2n1 [Example 47]

Found:
1: ≤ 250 nM; 2: ≤ 250 nM; 3: > 500 nM; 4: > 500 nM; 5: ≤ 250 nM

Here are 7 molecules. What values of IC50 were reported for them?
1. Cc1cc(S(=O)(=O)C(F)(F)F)ccc1-c1cnc(NCc2c(F)ccc3c2CCO3)n2cc(C#N)nc12 [Example 184]
2. Cc1ncc(-c2cnc(NCc3c(F)ccc4c3CCO4)n3cc(C#N)nc23)cc1N [Example 129]
3. N#Cc1cn2c(NCc3c(F)ccc4c3CCO4)ncc(-c3cccnc3)c2n1 [Example 100]
4. Cc1cc(-c2cnc(NCc3c(F)ccc4occc34)n3cc(C(=O)O)nc23)n(C)n1 [Example 9]
5. N#Cc1cn2c(NCc3c(F)ccc4c3CCO4)ncc(-c3ccnn3C3CC3)c2n1 [Example 193]
6. N#Cc1cn2c(NCc3c(F)ccc4c3CCO4)ncc(-c3cccnc3C(F)F)c2n1 [Example 64]
7. N#Cc1cn2c(NCc3c(F)ccc4c3CCO4)ncc(-c3ccc(C4CCN4)cc3)c2n1 (stereo not drawn) [Example 226]

Found:
250 to 500 nM
≤ 250 nM
≤ 250 nM
> 500 nM
≤ 250 nM
250 to 500 nM
≤ 250 nM
